system: CS242 ERMS (screening) cells; test: CS242 ERMS (screening) cell viability assay, CellTiter-Glo, 72 h; conditions: Homo sapiens, 72 h, read-out: CS242 ERMS viability IC50, Table 3 PDE inhibitor panel; 72 h; top 18.8, 75 or 93.8 μM; mean ± SD (n = 3)
For each record, write down the corresponding IC50.

// returns reported IC50 for input CN(C(=O)CCCOc1ccc2[nH]c(=O)ccc2c1)C1CCCCC1 [Cilostamide] > 18.8 µM

Request: Cc1[nH]c(=O)c(C#N)cc1-c1ccncc1 > 18.8 µM

Request: CN/C(=N\c1ccc(C2=NNC(=O)CC2C)cc1)NC#N (stereo not shown) > 93.8 µM

Request: O=C1CCc2cc(OCCCCc3nnnn3C3CCCCC3)ccc2N1 > 93.8 µM

Values compiled from paper PMC5376947.
